Each entry below carries its reported pIC50.
biological target: human full-length MKNK1 (Homo sapiens, UniProt Q9BUB5, T385D); test: MKNK1 kinase high ATP assay (TR-FRET); conditions: high ATP (2 mM), 15 min preincubation with enzyme, GST-MKNK1 (T344D)
Sequence (Q9BUB5 1-424 isoform Q9BUB5-2 T344D): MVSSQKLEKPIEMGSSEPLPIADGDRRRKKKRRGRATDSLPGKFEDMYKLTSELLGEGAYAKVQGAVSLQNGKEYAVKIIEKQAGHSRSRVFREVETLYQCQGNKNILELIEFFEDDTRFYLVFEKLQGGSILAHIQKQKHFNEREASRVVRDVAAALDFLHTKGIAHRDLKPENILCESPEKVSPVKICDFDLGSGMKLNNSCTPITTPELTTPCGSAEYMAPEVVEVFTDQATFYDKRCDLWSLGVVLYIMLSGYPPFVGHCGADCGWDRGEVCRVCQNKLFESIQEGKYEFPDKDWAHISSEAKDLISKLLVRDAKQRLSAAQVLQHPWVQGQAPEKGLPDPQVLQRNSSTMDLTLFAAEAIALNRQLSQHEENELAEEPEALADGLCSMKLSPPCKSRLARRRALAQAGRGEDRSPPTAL
pIC50: −log10 of the molar value.
Assay Endpoint: pIC50

>  <Molecule>
O=C(O)C1CCc2[nH]c3ncnc(Nc4ccccc4OC4CCCC4)c3c2C1 (racemic)

>  <Measurement>
5.54

$$$$
>  <Molecule>
CS(=O)(=O)CCCNC(=O)C1CCc2[nH]c3ncnc(Nc4ccc5c(c4)C(=O)OC5)c3c2C1 (racemic)

>  <Measurement>
5.65

$$$$
>  <Molecule>
CC(C)Oc1ccc(Cl)cc1Nc1ncnc2[nH]c3c(c12)CC(C(=O)NCCCS(C)(=O)=O)CC3 (racemic)

>  <Measurement>
7.92

$$$$
>  <Molecule>
CS(=O)(=O)CCCNC(=O)C1CCc2[nH]c3ncnc(Nc4ccc(Cl)c(Cl)c4)c3c2C1 (racemic)

>  <Measurement>
7.35

$$$$
>  <Molecule>
O=C(Nc1ccccc1)C1CCc2[nH]c3ncnc(Nc4ccccc4OC4CCCC4)c3c2C1 (racemic)

>  <Measurement>
5.54

$$$$
>  <Molecule>
CS(=O)(=O)CCCNC(=O)C1CCc2[nH]c3ncnc(Oc4ccc5[nH]ncc5c4)c3c2C1 (racemic)

>  <Measurement>
6.65

$$$$
>  <Molecule>
CC(C)Oc1cc(F)ccc1Nc1ncnc2[nH]c3c(c12)CC(F)(F)CC3

>  <Measurement>
7.07

$$$$
